- Tested on: SK-OV-3 ovarian
- Protocol details: NCI tumour cell line growth inhibition, 48 h
Attribute measured: TGI

[[record]]
smiles_record = "C[N+](C)(CCO)CCN1c2ccccc2Sc2ccccc21"
measured = "> 10 µM"

[[record]]
smiles_record = "O=C(/C=C/c1ccc2c(c1)OCO2)CC(=O)/C=C/c1ccc2c(c1)OCO2"
measured = "> 100 µM"

[[record]]
smiles_record = "CC(C)NC(=O)OCc1c(COC(=O)NC(C)C)c(-c2ccc[n+](COC(=O)C(C)(C)C)c2)n2c1CCC2"
measured = "> 100 µM"


###

- System: OVCAR-5 ovarian
- Protocol details: NCI tumour cell line growth inhibition, 48 h
The reader will find reported TGI values listed item by item below.
Attribute measured: TGI

[[record]]
smiles_record = "O=c1ccnc(SCc2ccc(Cl)cc2)[nH]1"
attribute_measured = "TGI"
measured = "> 100 µM"

[[record]]
smiles_record = "CCCN1C(=O)CNC(=O)c2[nH]cnc21"
attribute_measured = "TGI"
measured = "> 100 µM"

[[record]]
smiles_record = "CC(C)c1cccc(C(C)C)c1NC(=O)CCC(=O)NN"
attribute_measured = "TGI"
measured = "> 100 µM"

[[record]]
smiles_record = "CC#CC(=O)N1CC[C@@H](n2c(=O)n(-c3ccc(Oc4ccccc4)cc3)c3c(N)ncnc32)C1"
attribute_measured = "TGI"
measured = "> 100 µM"

[[record]]
smiles_record = "N#CCc1nc(-c2cc3c(ccc4ccccc43)oc2=O)cs1"
attribute_measured = "TGI"
measured = "> 100 µM"


###

- Tested on: MALME-3M melanoma
- Protocol details: NCI tumour cell line growth inhibition, 48 h
The reader will find reported TGI values listed item by item below.
Attribute measured: TGI

[[record]]
molecule = "O=C(O)[C@@H](NS(=O)(=O)c1ccc([N+](=O)[O-])cc1)c1ccccc1"
attribute_measured = "TGI"
measured = "> 100 µM"

[[record]]
molecule = "CC12C(=O)OC(=O)C1(C)C1C=CC2O1 (stereo not drawn)"
attribute_measured = "TGI"
measured = "> 100 µM"

[[record]]
molecule = "O=C(c1ccccc1)C1C[C@H]2CO[C@H](c3ccccc3)N2C1=O (stereo partly drawn)"
attribute_measured = "TGI"
measured = "> 100 µM"


###

- Test system: UO-31 renal
- Protocol details: NCI tumour cell line growth inhibition, 48 h
Attribute measured: TGI

[[record]]
molecule = "O=c1ccnc(SCc2ccc(Cl)cc2)[nH]1"
measured = "> 100 µM"

[[record]]
molecule = "CCOC(=O)NC1CC2CCC1(OC)C=C2C (stereo unspecified)"
measured = "> 100 µM"

[[record]]
molecule = "Cc1c(CC/C(=N\\Nc2ccc([N+](=O)[O-])cc2[N+](=O)[O-])c2ccccc2)c2ccccc2n1C"
measured = "> 100 µM"

[[record]]
molecule = "COCN1C(=O)[C@@H]2CCCN2C(=O)c2ccc([N+](=O)[O-])cc21"
measured = "> 100 µM"

[[record]]
molecule = "O=c1c2cc(S(=O)(=O)Nc3c(Cl)cccc3Cl)ccc2ncn1NS(=O)(=O)c1ccc2ccccc2c1"
measured = "> 62.5 µM"

[[record]]
molecule = "CCOC(=O)c1cc2cc(C)cc(C(=O)c3ccc([N+](=O)[O-])cc3)c2[nH]1"
measured = "> 100 µM"

[[record]]
molecule = "Cc1nn(C)c2cc(N(C)c3ccnc(Nc4cccc(S(N)(=O)=O)c4)n3)ccc12"
measured = "> 18.1 µM"

[[record]]
molecule = "Cc1ccc2c(c1)C=CC(C#N)N2C(=O)Oc1ccccc1 (stereo unspecified)"
measured = "> 100 µM"

[[record]]
molecule = "O=C(O)[C@@H](NS(=O)(=O)c1ccc([N+](=O)[O-])cc1)c1ccccc1"
measured = "> 100 µM"

[[record]]
molecule = "Cc1nnc2n1N=C(c1cc(F)c(Cl)cc1Cl)/C(=C/c1ccc3c(c1)OCO3)S2"
measured = "> 100 µM"

[[record]]
molecule = "c1cc(NC2=NCCO2)c2c(c1)OCO2"
measured = "> 100 µM"

[[record]]
molecule = "Clc1ccc(-c2nnc(-c3c(Cl)c(Cl)c(Cl)c(Cl)c3-c3nc4ccccc4[nH]3)o2)cc1"
measured = "> 100 µM"

[[record]]
molecule = "CCOC(=O)c1cc(Br)c(-c2onc(C)c2Br)n1C"
measured = "> 100 µM"

[[record]]
molecule = "OC(CC(O)(C(F)(F)F)C(F)(F)F)C(O)c1ccco1 (stereo unspecified)"
measured = "> 10 µM"

[[record]]
molecule = "COc1ccccc1NC(=O)C(CC(C(=O)Nc1ccccc1OC)/C(C)=N/NC(=O)c1ccccc1O)/C(C)=N/NC(=O)c1ccccc1O (stereo unspecified)"
measured = "> 100 µM"

[[record]]
molecule = "COc1ccc(C2c3c(-c4ccccc4)nn(-c4ccccc4)c3Oc3ncn4nc(CC#N)nc4c32)cc1OC (stereo unspecified)"
measured = "> 100 µM"


###

The reader will find reported TGI values listed item by item below.
- System: MOLT-4 leukemia
- Protocol details: NCI tumour cell line growth inhibition, 48 h
Attribute measured: TGI

[[record]]
compound = "O=C(Nc1ccc(Cl)cc1)NS(=O)(=O)c1c(-c2ccccc2)oc2ccccc2c1=O"
measured = "> 100 µM"

[[record]]
compound = "Cn1c(=O)cc(N2CCCC2)[nH]c1=O"
measured = "> 100 µM"

[[record]]
compound = "O=C1OC(CS(=O)(=O)c2ccccc2)CC1O (stereo not drawn)"
measured = "> 100 µM"


###

- System: HT29 colon
- Protocol details: NCI tumour cell line growth inhibition, 48 h
The reader will find reported TGI values listed item by item below.
Attribute measured: TGI

[[record]]
compound = "CC1=C2CN(C(=O)OCC(C)C)CCC2C2=C(C(=O)c3ccccc3C2=O)C1C (centres undefined)"
measured = "> 10 µM"

[[record]]
compound = "CC(C)NC(=O)OCc1c(COC(=O)NC(C)C)c(-c2ccc[n+](COC(=O)C(C)(C)C)c2)n2c1CCC2"
measured = "> 100 µM"

[[record]]
compound = "CCOC(=O)Nn1c(C)cc(C(=O)OC)c1C"
measured = "> 100 µM"

[[record]]
compound = "CCO/C=C(\\C(=O)OC)S(=O)(=O)c1ccc(C)cc1"
measured = "> 100 µM"


###

- Tested on: TK-10 renal
- Protocol details: NCI tumour cell line growth inhibition, 48 h
Attribute measured: TGI

[[record]]
compound = "COCN1C(=O)[C@@H]2CCCN2C(=O)c2ccc([N+](=O)[O-])cc21"
measured_target = "TK-10 renal"
measured = "> 100 µM"

[[record]]
compound = "COc1cc2c(cc1OC)-c1cc3ccc(OC)c(OC)c3c[n+]1CC2"
measured_target = "TK-10 renal"
measured = "> 100 µM"

[[record]]
compound = "C/C(=N/NC(N)=S)C(CN(C)C)C(C1=C(O)c2ccccc2OC1)c1ccccc1 (configuration not stated)"
measured_target = "TK-10 renal"
measured = "> 100 µM"

[[record]]
compound = "C=C(C)[C@@H]1CC[C@]2(C(N)=O)CC[C@]3(C)[C@H](CC[C@@H]4[C@@]5(C)C/C(=C/c6cccnc6)[C@H](O)C(C)(C)[C@@H]5CC[C@]43C)[C@@H]12"
measured_target = "TK-10 renal"
measured = "> 100 µM"

[[record]]
compound = "COc1ccc(C(c2ccc3c(c2)OCO3)N2C(=O)CCC2C(=O)O)cc1 (configuration not stated)"
measured_target = "TK-10 renal"
measured = "> 100 µM"

[[record]]
compound = "CC1=CC(=O)/C(=C/n2c(=S)[nH]c3ccc([N+](=O)[O-])cc32)C(=O)O1"
measured_target = "TK-10 renal"
measured = "> 100 µM"

[[record]]
compound = "CC#CC(=O)N1CC[C@@H](n2c(=O)n(-c3ccc(Oc4ccccc4)cc3)c3c(N)ncnc32)C1"
measured_target = "TK-10 renal"
measured = "> 100 µM"

[[record]]
compound = "COc1ccc(C(SCC(N)C(=O)O)(c2ccc(OC)cc2)c2ccc(OC)cc2)cc1 (configuration not stated)"
measured_target = "TK-10 renal"
measured = "25.6 µM"

[[record]]
compound = "COc1ccc(C2C(C=O)C(N3CCN(C)CC3)=Nc3nc4ccccc4n32)cc1 (configuration not stated)"
measured_target = "TK-10 renal"
measured = "40 µM"

[[record]]
compound = "Cc1ccc(NC(=O)CC2C(=O)Nc3ccccc3S2=O)c(C)c1 (configuration not stated)"
measured_target = "TK-10 renal"
measured = "56.5 µM"

[[record]]
compound = "Cc1cc(=O)[nH]c(NNC(C#N)c2ccco2)n1 (configuration not stated)"
measured_target = "TK-10 renal"
measured = "> 100 µM"

[[record]]
compound = "CC(=O)CCC[C@H](C)[C@@H](O)[C@@H]1O[C@H]([C@@]2(C)CCC(=O)O2)C[C@H]1C(=O)O"
measured_target = "TK-10 renal"
measured = "> 100 µM"

